Reported values of Ki for individual entries
target: recombinant human JAK1 kinase domain protein (Residues 854-1154) (Homo sapiens, UniProt P23458); construct: human JAK1 kinase domain protein (Residues 854-1154); assay: JAK1 biochemical assay (LabChip mobility shift, Ki); details: read-out: Biochem JAK1 Ki
Sequence (P23458 854-1154): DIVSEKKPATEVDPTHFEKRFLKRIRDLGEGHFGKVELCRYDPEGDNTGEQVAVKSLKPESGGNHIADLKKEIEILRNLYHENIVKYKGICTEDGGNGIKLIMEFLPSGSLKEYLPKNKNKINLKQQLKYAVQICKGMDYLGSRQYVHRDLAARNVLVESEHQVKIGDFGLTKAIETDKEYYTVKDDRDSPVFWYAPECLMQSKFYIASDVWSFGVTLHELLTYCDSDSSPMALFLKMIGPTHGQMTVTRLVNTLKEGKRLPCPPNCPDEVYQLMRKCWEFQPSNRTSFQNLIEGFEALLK
The response must be a number in nM with no trailing unit.

COMPOUND	Ki / nM
Cn1cc(NC(=O)c2cnn3cccnc23)c(-c2cc(Oc3ccc4c(c3)CNCC4)ccc2OC(F)F)n1	0.21
Cn1cc(NC(=O)c2cnn3cccnc23)c(-c2cc(Oc3cnn(CCC4CO4)c3)ccc2OC(F)F)n1 (centres unmarked)	1.9
CN1CCC(O)(Cn2cc(Oc3ccc(OC(F)F)c(-c4nn(C)cc4NC(=O)c4cnn5cccnc45)c3)cn2)CC1	0.54
CC(C)(C#N)c1ccc(Oc2ccc(OC(F)F)c(-c3n[nH]cc3NC(=O)c3cnn4cccnc34)c2)cc1	2.1
Cc1cc(Oc2ccc(OC(F)F)c(-c3nn(C)cc3NC(=O)c3cnn4cccnc34)c2)ccc1C(=O)N1CCN(C)CC1	1.3
Cn1cc(NC(=O)c2cnn3cccnc23)c(-c2cc(Oc3ccccn3)ccc2OC(F)F)n1	1.1
CN(C)CCN(C)C(=O)c1cccc(Oc2ccc(OC(F)F)c(-c3nn(C)cc3NC(=O)c3cnn4cccnc34)c2)c1	0.89
Cn1cc(NC(=O)c2cnn3cccnc23)c(-c2cc(Oc3cnn(C4CCNCC4O)c3)ccc2OC(F)F)n1 (centres unmarked) [Example 182]	0.65

For record CC(C)N1CC(O)(Cn2cc(Oc3ccc(OC(F)F)c(-c4nn(C)cc4NC(=O)c4cnn5cccnc45)c3)cn2)C1 the listed Ki is 0.46

For record CN(C)C1CCN(C(=O)c2cccc(Oc3ccc(OC(F)F)c(-c4nn(C)cc4NC(=O)c4cnn5cccnc45)c3)c2)C1 (racemic) the listed Ki is 0.98

For record CNC(=O)c1ccc(Oc2ccc(OC(F)F)c(-c3nn(C)cc3NC(=O)c3cnn4cccnc34)c2)cc1 the listed Ki is 0.41

For record Cc1ccc(Oc2ccc(OC(F)F)c(-c3nn(C)cc3NC(=O)c3cnn4cccnc34)c2)cc1C(=O)N1CCNCC1 the listed Ki is 0.43

For record Cn1cc(NC(=O)c2cnn3cccnc23)c(-c2cc(Oc3cnn(C4CCC4O)c3)ccc2OC(F)F)n1 (centres unmarked) [Example 134] the listed Ki is 0.42

For record CN(C)CCN1CC(O)(Cn2cc(Oc3ccc(OC(F)F)c(-c4nn(C)cc4NC(=O)c4cnn5cccnc45)c3)cn2)C1 the listed Ki is 1.5

----------
Reported values of Ki for individual entries
target: Recombinant human JAK2 kinase domain protein (Residues 812-1132) (Homo sapiens, UniProt O60674); assay: JAK2 biochemical assay (LabChip mobility shift, Ki); settings: Biochem JAK2 Ki
Sequence (O60674 812-1132): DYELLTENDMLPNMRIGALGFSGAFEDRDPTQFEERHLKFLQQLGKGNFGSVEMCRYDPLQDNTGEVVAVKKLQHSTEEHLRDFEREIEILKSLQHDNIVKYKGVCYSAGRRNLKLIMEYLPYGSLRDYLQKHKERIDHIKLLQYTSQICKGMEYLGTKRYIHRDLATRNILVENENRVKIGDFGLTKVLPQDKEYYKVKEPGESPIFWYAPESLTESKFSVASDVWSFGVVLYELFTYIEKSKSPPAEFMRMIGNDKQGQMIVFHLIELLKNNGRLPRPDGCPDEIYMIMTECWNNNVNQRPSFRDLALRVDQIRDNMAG

Use the examples below as a reference point.
SMILES_TEXT	Ki
O=C(Nc1cn(C2COC2)nc1-c1cc(Oc2ccc3c(c2)CNCC3)ccc1OC(F)F)c1cnn2cccnc12	0.28 nM
CNCc1cccc(Oc2ccc(OC(F)F)c(-c3n[nH]cc3NC(=O)c3cnn4cccnc34)c2)c1	0.4 nM
Cc1cc(Oc2ccc(OC(F)F)c(-c3nn(C)cc3NC(=O)c3cnn4cccnc34)c2)ccc1C(=O)N(C)C	0.26 nM
CN(C)CCn1cc(Oc2ccc(OC(F)F)c(-c3nn(C)cc3NC(=O)c3cnn4cccnc34)c2)cn1	1.7 nM
Cn1cc(NC(=O)c2cnn3cccnc23)c(-c2cc(Oc3cncc(CN)c3)ccc2OC(F)F)n1	2.5 nM
Cn1cc(NC(=O)c2cnn3cccnc23)c(-c2cc(Oc3cccc(CNC(CO)CO)c3)ccc2OC(F)F)n1	0.64 nM

For record Cn1cc(NC(=O)c2cnn3cccnc23)c(-c2cc(Oc3ccc(F)c(C4(O)CNC4)c3)ccc2OC(F)F)n1 the listed Ki is 0.54 nM

----------
biological target: recombinant human JAK1 kinase domain protein (Residues 854-1154) (Homo sapiens); construct: human JAK1 kinase domain protein (Residues 854-1154); assay: JAK1 biochemical assay (LabChip mobility shift, Ki); settings: read-out: Biochem JAK1 Ki
Mark each entry 1 if its Ki sits below 0.9 nM, and -1 for all others.

COMPOUND	CLASS
Cn1cc(NC(=O)c2cnn3cccnc23)c(-c2cc(Oc3cnn(CCN)c3)ccc2OC(F)F)n1 [Example 126]	-1
Cn1cc(NC(=O)c2cnn3cccnc23)c(-c2cc(Oc3cnn([C@@H]4CNCC[C@H]4O)c3)ccc2OC(F)F)n1 (stereo in doubt) [Example 181]	1
Cn1cc(NC(=O)c2cnn3cccnc23)c(-c2cc(Oc3cccc(CNCCO)c3)ccc2OC(F)F)n1 [Example 23]	1
O=C(Nc1c[nH]nc1-c1cc(Oc2ccc(OCC(F)(F)F)cc2)ccc1OC(F)F)c1cnn2cccnc12 [Example 5]	-1
Cn1cc(NC(=O)c2cnn3cccnc23)c(-c2cc(Oc3cccc(CN4CCO[C@@H](CO)C4)c3)ccc2OC(F)F)n1 (stereo in doubt) [Example 75]	1

Determine if Cn1cc(NC(=O)c2cnn3cccnc23)c(-c2cc(Oc3cccnn3)ccc2OC(F)F)n1 [Example 204] shows Ki strictly lower than 0.9 nM.
-1

Determine if NCc1cccc(Oc2ccc(OC(F)F)c(-c3n[nH]cc3NC(=O)c3cnn4cccnc34)c2)c1F [Example 24] shows Ki strictly lower than 0.9 nM.
1

Determine if O=C(Nc1c[nH]nc1-c1cc(Oc2cccc(C3CNCCO3)c2)ccc1OC(F)F)c1cnn2cccnc12 (centres unmarked) [Example 9] shows Ki strictly lower than 0.9 nM.
1

----------
Reported values of pKi for individual entries
molecular target: Recombinant human JAK2 kinase domain protein (Residues 812-1132) (Homo sapiens); assay: JAK2 biochemical assay (LabChip mobility shift, Ki); conditions: Biochem JAK2 Ki
The quantity pKi is defined as the negative base-10 logarithm of the molar concentration.

For record Cn1cc(NC(=O)c2cnn3cccnc23)c(-c2cc(Oc3cnn([C@H]4CNCC[C@@H]4O)c3)ccc2OC(F)F)n1 (stereo in doubt) the listed pKi is 9.64

For record CN1CCCC(O)(Cn2cc(Oc3ccc(OC(F)F)c(-c4nn(C)cc4NC(=O)c4cnn5cccnc45)c3)cn2)CC1 (centres unmarked) [Example 197] the listed pKi is 9.29

For record Cn1cc(NC(=O)c2cnn3cccnc23)c(-c2cc(Oc3cc(C(F)(F)F)cc(C4(O)CNC4)c3)ccc2OC(F)F)n1 the listed pKi is 9.37

For record CC(N)c1cccc(Oc2ccc(OC(F)F)c(-c3n[nH]cc3NC(=O)c3cnn4cccnc34)c2)c1 (centres unmarked) the listed pKi is 9.42

For record CN(C)Cc1cncc(Oc2ccc(OC(F)F)c(-c3nn(C)cc3NC(=O)c3cnn4cccnc34)c2)c1 the listed pKi is 8.92

----------
target: Recombinant human JAK2 kinase domain protein (Residues 812-1132) (Homo sapiens); experiment: JAK2 biochemical assay (LabChip mobility shift, Ki); conditions: Biochem JAK2 Ki
Reported values of pKi for individual entries
The quantity pKi is defined as the negative base-10 logarithm of the molar concentration.

MOLECULE	REPORTED_PROPERTY	MEASURED_RESULT
Cn1cc(NC(=O)c2cnn3cccnc23)c(-c2cc(Oc3cnn(C4CNCC4O)c3)ccc2OC(F)F)n1 (stereo not shown) [Example 177]	pKi	9.47
CN1CC(O)(c2cc(F)cc(Oc3ccc(OC(F)F)c(-c4nn(C)cc4NC(=O)c4cnn5cccnc45)c3)c2)C1	pKi	9.59
CN1CC[C@H](O)[C@@H](n2cc(Oc3ccc(OC(F)F)c(-c4nn(C)cc4NC(=O)c4cnn5cccnc45)c3)cn2)C1 (stereo in doubt)	pKi	9.68

For Cc1ccc(Oc2ccc(OC(F)F)c(-c3n[nH]cc3NC(=O)c3cnn4cccnc34)c2)cc1C(=O)N(C)C on Recombinant human JAK2 kinase domain protein (Residues 812-1132) (Homo sapiens), measured pKi was 9.74

For Cn1cc(NC(=O)c2cnn3cccnc23)c(-c2cc(Oc3cnn(CCN)c3)ccc2OC(F)F)n1 on Recombinant human JAK2 kinase domain protein (Residues 812-1132) (Homo sapiens), measured pKi was 9.04

----------
target: Recombinant human JAK2 kinase domain protein (Residues 812-1132) (Homo sapiens); experiment: JAK2 biochemical assay (LabChip mobility shift, Ki); conditions: Biochem JAK2 Ki
REPORTED_PROPERTY: Ki (pM)
The response must be a number in pM with no trailing unit.

Use the examples below as a reference point.
COMPOUND	Ki, pM
Cc1ccc(Oc2ccc(OC(F)F)c(-c3nn(CCN[C@H]4CCOC4)cc3NC(=O)c3cnn4cccnc34)c2)cc1C(=O)N(C)C (racemic) [Example 58]	700
CN1CCN(C(=O)c2ccc(Oc3ccc(OC(F)F)c(-c4nn(C)cc4NC(=O)c4cnn5cccnc45)c3)cc2)CC1 [Example 86]	560
CN1CCC[C@H]1Cn1cc(NC(=O)c2cnn3cccnc23)c(-c2cc(Oc3ccccc3)ccc2OC(F)F)n1 (racemic) [Example 31]	860
CN1CCCC(O)(Cn2cc(Oc3ccc(OC(F)F)c(-c4nn(C)cc4NC(=O)c4cnn5cccnc45)c3)cn2)C1 (centres unmarked) [Example 194]	1400

// switching to the query compound
For record CN1CC(O)(c2cc(Oc3ccc(OC(F)F)c(-c4nn(C)cc4NC(=O)c4cnn5cccnc45)c3)cc(C(F)(F)F)c2)C1 [Example 106] the listed Ki is 1700
